src = ChEMBL document CHEMBL1138010

Molecular target: Cytochrome P450 1A2 (Homo sapiens, UniProt P05177)
Sequence (P05177 whole entry): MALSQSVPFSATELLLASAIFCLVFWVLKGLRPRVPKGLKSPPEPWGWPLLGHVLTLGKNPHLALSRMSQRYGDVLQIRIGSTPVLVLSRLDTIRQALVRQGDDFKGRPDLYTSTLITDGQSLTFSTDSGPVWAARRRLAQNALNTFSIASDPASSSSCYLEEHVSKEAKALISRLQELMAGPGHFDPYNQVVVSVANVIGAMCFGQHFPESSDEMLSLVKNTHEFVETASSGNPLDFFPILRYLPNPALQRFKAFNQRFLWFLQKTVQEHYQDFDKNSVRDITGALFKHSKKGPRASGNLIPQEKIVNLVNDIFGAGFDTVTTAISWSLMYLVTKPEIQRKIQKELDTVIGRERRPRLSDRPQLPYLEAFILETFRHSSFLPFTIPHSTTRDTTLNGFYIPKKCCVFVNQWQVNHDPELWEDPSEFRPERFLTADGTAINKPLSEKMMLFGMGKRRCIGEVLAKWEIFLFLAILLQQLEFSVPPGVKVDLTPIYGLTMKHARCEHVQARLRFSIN
Assay: Antagonistic activity against recombinant cytochrome P450 1A2
Format: ADME
Settings: recombinant enzyme
Binary classification by Activity, with 2 µM as an inclusive lower bound for True; all other cases are False.

Observe how each entry below is paired with its result.
1) Fc1cc(Oc2cccnc2)cc(-n2nnc(-c3ccccn3)n2)c1 = False
2) N#Cc1cccc(-n2nnc(-c3nccs3)n2)c1 = False
3) Cc1ccncc1-c1cc(F)cc(-n2nnc(-c3ncc[nH]3)n2)c1 = True
4) N#Cc1cccc(-n2nnc(-c3cscn3)n2)c1 = False
5) N#Cc1cccc(-n2nnc(-c3ccccn3)n2)c1 = True
6) Cc1c[nH]c(-c2nnn(-c3cc(F)cc(C#N)c3)n2)n1 = True

Below: the item to evaluate.
Task item: Is Activity at least 2 µM? Consider N#Cc1cccc(-n2nnc(-c3ncc[nH]3)n2)c1
Reply: True
